Kappa-type opioid receptor (Rattus norvegicus): recorded Ki for assorted compounds
Sequence (P34975 whole entry): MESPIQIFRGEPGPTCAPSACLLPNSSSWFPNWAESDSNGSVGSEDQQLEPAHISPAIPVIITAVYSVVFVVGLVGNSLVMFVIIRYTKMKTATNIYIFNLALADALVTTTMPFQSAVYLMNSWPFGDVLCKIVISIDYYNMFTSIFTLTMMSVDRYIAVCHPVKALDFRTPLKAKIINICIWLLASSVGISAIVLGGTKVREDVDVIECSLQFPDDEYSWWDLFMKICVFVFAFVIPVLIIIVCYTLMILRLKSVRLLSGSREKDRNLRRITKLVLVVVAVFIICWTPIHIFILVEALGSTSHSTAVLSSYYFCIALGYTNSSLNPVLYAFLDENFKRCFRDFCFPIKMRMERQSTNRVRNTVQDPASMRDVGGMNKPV
State just the number; it will be interpreted in nM.

COC(=O)[C@@H]1C[C@@H](S)C(=O)[C@H]2[C@@]1(C)CC[C@H]1C(=O)O[C@H](c3ccoc3)C[C@]21C [2-EPI-2-THIOSALVINORIN B] : 546
COC(=O)[C@@H]1C[C@@H](SC(C)=O)C(=O)[C@H]2[C@@]1(C)CC[C@H]1C(=O)O[C@H](c3ccoc3)C[C@]21C [2-EPI-2-THIOSALVINORIN A] : 151

Kindly consider the entry below.
[ask] Would you kindly share the measured Ki for COC(=O)[C@@H]1C[C@H](S)C(=O)[C@H]2[C@@]1(C)CC[C@H]1C(=O)O[C@H](c3ccoc3)C[C@]21C ?
[reply] 54.5

----------
measuredTarget: Kappa-type opioid receptor (Homo sapiens)
Sequence (P41145 whole entry): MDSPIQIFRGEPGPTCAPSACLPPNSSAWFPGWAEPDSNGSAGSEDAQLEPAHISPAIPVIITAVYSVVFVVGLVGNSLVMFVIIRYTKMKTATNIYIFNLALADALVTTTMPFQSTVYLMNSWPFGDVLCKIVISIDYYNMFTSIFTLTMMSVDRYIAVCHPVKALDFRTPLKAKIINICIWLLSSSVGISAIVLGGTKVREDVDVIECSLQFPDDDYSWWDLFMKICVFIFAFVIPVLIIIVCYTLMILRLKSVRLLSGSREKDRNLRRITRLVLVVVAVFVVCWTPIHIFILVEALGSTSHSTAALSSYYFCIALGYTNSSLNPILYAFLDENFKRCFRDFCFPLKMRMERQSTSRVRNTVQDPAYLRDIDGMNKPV
procedureDetails: Activity at human kappa opioid receptor expressed in HEK293 cells as intracellular calcium mobilization
endpointLabel: pEC50
Conceptually, pEC50 converts a concentration in mol/L into minus its log10.

COC(=O)[C@@H]1C[C@@H](SC(C)=O)C(=O)[C@H]2[C@@]1(C)CC[C@H]1C(=O)O[C@H](c3ccoc3)C[C@]21C [2-EPI-2-THIOSALVINORIN A] : 6.91

Kindly consider the entry below.
[ask] Would you kindly share the measured pEC50 for COC(=O)[C@@H]1C[C@H](S)C(=O)[C@H]2[C@@]1(C)CC[C@H]1C(=O)O[C@H](c3ccoc3)C[C@]21C ?
[reply] 6.54
